This collection of values is drawn from the supplement of paper PMC10567573.

B1: EPB41L3 (parent)
chain: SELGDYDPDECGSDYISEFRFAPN

Variants of: B1
Experiment: protein stability index of a GFP-peptide fusion (GPS, HEK-293T) (PSI 1-6); higher = more stable;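 further: lentivirally expressed fusions sorted by FACS into six bins by GFP to DsRed ratio, PSI derived from sequencing read proportions per bin multiplied by bin number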
Conditions: c terminus: a fixed tail appended
Everything with protein stability index lower than 2 is label 0; everything else, including exactly 2, is label 1.

Field: example entries. Status: answers known.
{"columns": ["mutant label", "discrete label"],
 "data": [
  ["A22S", "label 1"],
  ["P23I", "label 1"],
  ["P8D", "label 1"],
  ["P23A", "label 1"],
  ["S17Y", "label 0"]
]}

Req: protein stability index >= 2 for "S13T" ?
Resp: label 0

Req: Textbook exercise: given the entry "E10V" , state whether its protein stability index is greater than or equal to 2.
Resp: label 1

Req: Tell me whether protein stability index is at least 2 here: "F19D"
Resp: label 1

Req: Record "P23R" ; criterion: protein stability index no lower than 2. Met?
Resp: label 0

Req: For this variant, is measured protein stability index 2 or higher? "D14T"
Resp: label 1

Req: Could you please find out whether "F19L" has protein stability index that meets 2 or exceeds it?
Resp: label 1

Req: In plain terms: is recorded protein stability index at least 2 for "D9P" ?
Resp: label 0

Req: Could you please find out whether "G12I" has protein stability index that meets 2 or exceeds it?
Resp: label 1

Req: Could you please find out whether "F21H" has protein stability index that meets 2 or exceeds it?
Resp: label 1
